system: Plasmodium falciparum NF54 stage IV/V gametocytes; test: % inhibition of gametocyte viability (ATP bioluminescence); higher = more inhibition; conditions: 1 µM; 24 h
Reported % inhibition of gametocyte viability values follow for various molecules
value_kind: % inhibition of gametocyte viability

1) O=C(O)c1ccc(-n2nc(-c3ccccc3O)nc2-c2ccccc2O)cc1	< 0%
2) Cc1cc(CCOc2c(C)cc(-c3nnn(C)n3)cc2C)on1	< 0%
3) O=C(NCCN1CCCCC1)c1cccc(C(F)(F)F)c1	< 0%
4) COc1ccc(NC(=O)c2cc3ccccn3n2)cc1	< 0%
5) Nc1nc(=O)c(Br)c(-c2cccc(Cl)c2)[nH]1	4.05%
6) O=C(O)CSc1cc(NS(=O)(=O)c2cccc3cccnc23)c2ccccc2c1O	0.374%
7) COc1cc(Cc2cc(N)nc(N)n2)cc(OC)c1OC	< 0%
8) CCN(CC)S(=O)(=O)c1ccc(Cl)c(C(=O)Nc2sc3c(c2C#N)CCCC3)c1	< 0%
9) CCCCCCCCC(CP(=O)(O)C(C)N)C(=O)O (stereo not given)	< 0%
10) Cc1cc(-c2ccccc2)c(C(=O)C(=O)Nc2ccc(N3CCN(c4ncc(F)cn4)CC3)cc2)n1C	5.9%

====

tested on: Plasmodium falciparum NF54 stage IV/V gametocytes; test: % inhibition of gametocyte viability (PrestoBlue); higher = more inhibition; settings: 1 µM; 48 h
Readings of % inhibition of gametocyte viability for the listed molecules
value_kind: % inhibition of gametocyte viability (%)

1) O=C(/C=C/n1cnc(-c2cc(C(F)(F)F)cc(C(F)(F)F)c2)n1)NNc1cnccn1	11.2
2) CC(C)Oc1ccc(-n2cnc3cc(/C=C\c4ccc(C(C)(C)O)cc4)ccc32)cc1	30.8
3) Clc1ccc(COC(Cn2ccnc2)c2ccc(Cl)cc2Cl)c(Cl)c1 (stereo not drawn)	10.1
4) C=CCN(C(=O)OCc1ccc([N+](=O)[O-])cc1)C1CCN(CC[C@](C)(CN(C)S(=O)(=O)c2ccccc2)c2ccccc2)CC1	4.29
5) CC(C)=CCC/C(C)=C/CNCCNC1C2CC3CC(C2)CC1C3 (stereo not drawn)	51.3
6) Nc1nc(-c2ccccc2)nc2c1ncn2[C@@H]1O[C@H](COS(=O)(=O)NC(=O)c2ccccc2O)[C@@H](O)[C@H]1O	16.3
7) FC(F)(F)c1cc(C(F)(F)F)c2ccc3nc(-c4nnco4)cn3c2n1	17.1
8) CC(C)Nc1nc2cc(Cl)c(Cl)cc2n1[C@H]1O[C@@H](CO)[C@H](O)[C@@H]1O	17.6
9) CC[C@H](NC(=O)[C@H](C)NC)C(=O)N1C[C@@H](O)C[C@H]1Cc1c(-c2[nH]c3cc(F)ccc3c2C[C@@H]2C[C@H](O)CN2C(=O)[C@H](CC)NC(=O)[C@H](C)NC)[nH]c2cc(F)ccc12	5.89

====

tested on: Plasmodium berghei ANKA liver stage in HepG2-A16-CD81; experiment: % inhibition of liver stage parasite viability (luciferase); higher = more inhibition; settings: 5 µM; 48 h
Met if % inhibition of liver stage parasite viability is below 20%. Not met if not; exact matches included in Not met.

1. COC(=O)Nc1nc2cc(S(=O)c3ccccc3)ccc2[nH]1 (stereo unspecified)	Met
2. O=C(c1ccc(F)cc1)N1CCN2C(=O)c3ccccc3C12c1ccccc1 (stereo unspecified)	Not met
3. O=C(Nc1cccc(C2=NCCN2)c1)c1ccc(-c2ccc(C(=O)Nc3cccc(C4=NCCN4)c3)cc2)cc1	Met
4. Nc1nc(O)c(Br)c(-c2ccccc2)n1	Met
5. O=S(=O)(Nc1ccc(-n2cccc2)cc1)c1ccc(Cl)c(Cl)c1	Not met
6. CC1=C(/C=C/C(C)=C/C=C/C(C)=C/C(=O)Nc2ccc(O)cc2)C(C)(C)CCC1	Met

Reference source for all entries: the supplement of paper PMC7801607
